# protocol-details: Volume of distribution at steady state in iv and po dosed dog
# Type: ADME, organism-based, Canis lupus familiaris
# condition-label: in vivo, read-out: Vdss
reported-endpoint: Vd (L/kg)
Give the number; L/kg is assumed, so skip it.

Exercise: Assign Vd to the following record: `CC(C)(Cc1ccc2ccccc2c1)NC[C@@H](O)COc1ccc(CCC(=O)O)cc1C#N`
Key: 0.78

---

# half-life values compiled below
# protocol-details: Half life in iv and po dosed rat
# Format: ADME, organism-based
# condition-label: in vivo
Write the answer as a number in min, unit excluded.

Record excerpt, results attached:
[[record]]
smiles_string = "CCOC(=O)CCc1ccc(OC[C@H](O)CNC(C)(C)Cc2ccc3ccccc3c2)c(C#N)c1.Cl"
reported_endpoint = "half-life"
unit_of_measurement = "min"
measurement = 52.8

[[record]]
smiles_string = "CC(C)(Cc1ccc2ccccc2c1)NC[C@@H](O)COc1cccc(Cl)c1C#N"
reported_endpoint = "half-life"
unit_of_measurement = "min"
measurement = 126

[[record]]
smiles_string = "CC(C)(Cc1ccc2ccccc2c1)NC[C@@H](O)COc1ccc(CCC(=O)O)cc1C#N"
reported_endpoint = "half-life"
unit_of_measurement = "min"
measurement = 33.6


Now look at this entry.
Exercise: // fetch half-life given entry `CC(C)(Cc1ccc2ccccc2c1)NC[C@@H](O)COc1ccc(CCC(=O)O)cc1`
Key: 24

---

# protocol-details: Half life in iv and po dosed dog
# Type: ADME, organism-based, Canis lupus familiaris
# condition-label: in vivo
reported-endpoint: half-life (h)
API: value field is a number in h; no unit string.

[[record]]
smiles_string = "CC(C)(Cc1ccc2ccccc2c1)NC[C@@H](O)COc1ccc(CCC(=O)O)cc1C#N"
measurement = 1.23


Then there is this molecule:
Exercise: # return recorded half-life for input `CCOC(=O)CCc1ccc(OC[C@H](O)CNC(C)(C)Cc2ccc3ccccc3c2)c(C#N)c1.Cl`
Key: 1.23

---

IC50 values recorded for Beta-2 adrenergic receptor (Homo sapiens, UniProt P07550)
# number only, unit µM dropped from output

[[record]]
smiles_string = "CC(C)(Cc1ccc2ccccc2c1)NC[C@@H](O)COc1cccc(Cl)c1C#N"
reported_endpoint = "IC50"
measurement = 4.3


With those in mind, consider the next compound.
Exercise: Provide measured IC50 value, entry: `COc1ccc(CC(C)(C)NC[C@H](O)COc2cccc3[nH]c(=O)[nH]c23)cc1`
Key: 0.0013

---

# protocol-details: Clearance in iv and po dosed dog
# Format: ADME, organism-based, Canis lupus familiaris
# condition-label: in vivo
reported-endpoint: clearance (mL/min/kg)
Provide the reading as a plain figure in mL/min/kg.

Exercise: For the compound `CC(C)(Cc1ccc2ccccc2c1)NC[C@@H](O)COc1ccc(CCC(=O)O)cc1C#N` , give its measured clearance value.
Key: 15.4

---

IC50 values, listed per item
# test-target: Extracellular calcium-sensing receptor (Homo sapiens, UniProt P41180)
# Sequence (P41180 whole entry): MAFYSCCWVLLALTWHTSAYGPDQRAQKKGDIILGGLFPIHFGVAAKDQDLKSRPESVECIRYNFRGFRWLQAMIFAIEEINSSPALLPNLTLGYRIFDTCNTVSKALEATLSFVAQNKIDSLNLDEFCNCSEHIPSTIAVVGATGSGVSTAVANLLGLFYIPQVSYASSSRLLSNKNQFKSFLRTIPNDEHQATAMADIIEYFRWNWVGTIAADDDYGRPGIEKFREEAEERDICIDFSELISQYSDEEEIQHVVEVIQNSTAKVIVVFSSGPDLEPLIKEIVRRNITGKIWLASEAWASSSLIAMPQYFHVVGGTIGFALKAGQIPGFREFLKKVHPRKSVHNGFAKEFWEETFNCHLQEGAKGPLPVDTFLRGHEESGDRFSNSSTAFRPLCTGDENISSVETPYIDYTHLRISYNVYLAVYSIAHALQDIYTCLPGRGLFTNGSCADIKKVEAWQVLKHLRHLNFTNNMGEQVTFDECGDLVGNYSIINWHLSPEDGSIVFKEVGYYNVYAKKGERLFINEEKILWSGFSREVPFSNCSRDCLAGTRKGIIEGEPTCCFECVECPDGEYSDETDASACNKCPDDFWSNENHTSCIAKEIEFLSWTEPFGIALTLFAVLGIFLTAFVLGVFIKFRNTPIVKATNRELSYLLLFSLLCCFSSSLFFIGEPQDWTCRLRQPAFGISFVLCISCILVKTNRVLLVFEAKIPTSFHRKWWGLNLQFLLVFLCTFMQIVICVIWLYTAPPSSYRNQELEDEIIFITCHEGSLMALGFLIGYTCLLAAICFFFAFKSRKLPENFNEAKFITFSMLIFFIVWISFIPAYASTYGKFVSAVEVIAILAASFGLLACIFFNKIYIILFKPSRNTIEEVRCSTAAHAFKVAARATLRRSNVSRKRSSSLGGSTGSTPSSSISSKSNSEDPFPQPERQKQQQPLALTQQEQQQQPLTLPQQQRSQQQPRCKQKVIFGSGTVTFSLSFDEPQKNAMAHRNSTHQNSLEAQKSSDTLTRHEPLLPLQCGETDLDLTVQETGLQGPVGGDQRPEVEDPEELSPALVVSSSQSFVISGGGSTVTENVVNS
# protocol-details: Antagonist activity at human calcium receptor expressed in HEK293 4.0-7 cells assessed as inhibition of intracellular calcium release by FLIPR assay
# Type: functional, cell-based
Respond numerically; units are nM and should not be typed.

Look over these answered cases.
[[record]]
smiles_string = "CC(C)(Cc1ccc2ccccc2c1)NC[C@@H](O)COc1ccccc1C#N"
reported_endpoint = "IC50"
unit_of_measurement = "nM"
measurement = 18

[[record]]
smiles_string = "CC(C)(Cc1ccc2ccccc2c1)NC[C@@H](O)COc1cccc(Cl)c1C#N"
reported_endpoint = "IC50"
unit_of_measurement = "nM"
measurement = 58

[[record]]
smiles_string = "CCOC(=O)CCc1ccc(OC[C@H](O)CNC(C)(C)Cc2ccc3ccccc3c2)c(C#N)c1.Cl"
reported_endpoint = "IC50"
unit_of_measurement = "nM"
measurement = 34

[[record]]
smiles_string = "COc1ccc(CC(C)(C)NC[C@H](O)COc2cccc3[nH]c(=O)[nH]c23)cc1"
reported_endpoint = "IC50"
unit_of_measurement = "nM"
measurement = 11000


Please turn your attention to the following entry.
Exercise: Look up IC50 of `CC(C)(Cc1ccc2ccccc2c1)NC[C@@H](O)COc1ccc(CCC(=O)O)cc1C#N` and report it.
Key: 200
